# reported EC50; entries follow
Molecular target: human muscarinic M4 receptor (Homo sapiens)
Construct: expressed in transfected cells
Sequence (P08173 whole entry): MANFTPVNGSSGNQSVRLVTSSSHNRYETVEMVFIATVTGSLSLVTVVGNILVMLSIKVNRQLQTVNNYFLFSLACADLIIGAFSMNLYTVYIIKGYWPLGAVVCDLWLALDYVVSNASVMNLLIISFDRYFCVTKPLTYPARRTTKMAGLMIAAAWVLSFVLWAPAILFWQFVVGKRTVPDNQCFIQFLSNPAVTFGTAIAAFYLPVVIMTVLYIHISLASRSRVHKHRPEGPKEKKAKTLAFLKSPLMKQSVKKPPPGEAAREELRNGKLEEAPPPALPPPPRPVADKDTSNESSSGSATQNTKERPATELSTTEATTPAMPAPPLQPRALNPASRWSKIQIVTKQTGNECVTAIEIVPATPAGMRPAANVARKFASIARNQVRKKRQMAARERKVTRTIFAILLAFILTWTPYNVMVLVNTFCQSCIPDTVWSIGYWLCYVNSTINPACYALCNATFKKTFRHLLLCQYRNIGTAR
Assay: Alphascreen Surefire phospho-ERK1/2 functional assay, M4
Assay type: cell-based
Conditions: CHO cells stably expressing human M4; phospho-ERK1/2; * = variable results; read-out: pEC50 M4 (converted)
Entry rule: numbers only, all in nM.

Use the examples below as a reference point.
[[record]]
molecule = "CCOC(=O)N1CCC2(CC(N3CCC(N4CC(F)(F)C[C@@H]4C(=O)NC)CC3)C2)C1 (single isomer, unassigned) [2-88 Isomer 2]"
measured_on = "human muscarinic M4 receptor (Homo sapiens)"
endpoint = "EC50"
observed_result = 39.8

[[record]]
molecule = "[2H]C([2H])([2H])COC(=O)N1CCC2(CC(N3CCC(n4cccn4)CC3)C2)C1 (single isomer, unassigned) [1-69 Isomer 2]"
measured_on = "human muscarinic M4 receptor (Homo sapiens)"
endpoint = "EC50"
observed_result = 5.01

[[record]]
molecule = "CCOC(=O)N1CCC2(CC(N3CCC([C@@H]4CCCN4C(=O)N(C)C)CC3)C2)C1 (single isomer, unassigned) [2-21 Isomer 2]"
measured_on = "human muscarinic M4 receptor (Homo sapiens)"
endpoint = "EC50"
observed_result = 7.94


Provide the documented EC50 with human muscarinic M4 receptor (Homo sapiens) as the system for CCOC(=O)N1CCC2(CC(N3CCC([C@@H]4CCCN4C(=O)OCC(F)(F)F)CC3)C2)C1 (single isomer, unassigned) [2-48 Isomer 2] 10

Try the molecule CCOC(=O)N1CCC2(CC(N3CCC(N4CC[C@@H](F)C4)CC3)C2)C1 (single isomer, unassigned) [2-98 Isomer 2] 126

Try the molecule CCOC(=O)N1CCC2(CC(N3CCC(C4CCCN4C(=O)N(C)C)CC3)C2)C1 (single isomer, unassigned) [2-20 Isomer 2] 31.6
